Test system: RPMI-8226 leukemia
Assay: NCI-60 one-dose screen, 48 h (100 = growth as untreated, 0 = no growth, -100 = all killed)
Details: 10 µM unless noted
Description: Growth inhibition of the RPMI-8226 human tumor cell line is measured as a screen for anti-cancer activity. Cells are grown in 96 well plates and exposed to the test compound for 48 hours. Compounds are tested at a single concentration, which is 10^-5 M for most compounds. The reported endpoint is percent growth (GI% or GIPRCNT), where numbers from 0 - 100% represent growth inhibition, and numbers from -100% - 0 represent cell death. For example, a value of 40 represents 60% growth inhibition. […]
Compounds without any hit were thinned out: in the full panel of roughly 83,000, 20% have a hit.
Output 1 for growth not less than 90%; output 0 otherwise.

compound	assigned_category
CCCCCCCCC(CO)NCCc1ccccc1 (stereo not given)	0

# input For this compound, is measured growth 90% or higher? `CCCCC1(CCC)C(=O)NC(=S)NC1=O`
# output 1

# input Entry `COC(=O)[C@@H](C)C[C@H](Cc1ccccc1)NC(=O)c1csc([C@@H](C[C@H](C(C)C)N(C)C(=O)[C@@H](NC(=O)[C@H]2CCCCN2C)C2CCCCC2)OC(C)=O)n1` : is its growth no less than 90%?
# output 0

# input API: above_or_equal(metric=growth, cutoff=90%) for item `COc1ccc(/C=C\c2cc(OC)c(OC)c(OC)c2)c(NS(=O)(=O)c2ccc(Cl)cc2)c1O`
# output 0

# input Record `O=C(Nc1ccc(Cl)cc1)Nc1nccs1` ; criterion: growth no lower than 90%. Met?
# output 0

# input Is it the case that CCC(CC)CC1(C)CC2(C)CCOC2OO1 (stereo not given) has growth reaching or exceeding 90%?
# output 1
